Target: T1, human IL-12 (human, UniProt P29460 23-328; P29459 23-219)
T1 construct: also called Interleukin-12
T1 sequence 1: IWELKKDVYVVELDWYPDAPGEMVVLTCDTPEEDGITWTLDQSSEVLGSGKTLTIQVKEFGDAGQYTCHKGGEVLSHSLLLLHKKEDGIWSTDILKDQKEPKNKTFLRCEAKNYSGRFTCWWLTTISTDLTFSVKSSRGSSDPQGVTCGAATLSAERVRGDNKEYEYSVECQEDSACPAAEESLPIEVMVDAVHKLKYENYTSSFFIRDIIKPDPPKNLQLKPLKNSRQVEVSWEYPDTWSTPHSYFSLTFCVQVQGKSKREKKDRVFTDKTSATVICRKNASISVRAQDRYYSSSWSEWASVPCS
T1 sequence 2: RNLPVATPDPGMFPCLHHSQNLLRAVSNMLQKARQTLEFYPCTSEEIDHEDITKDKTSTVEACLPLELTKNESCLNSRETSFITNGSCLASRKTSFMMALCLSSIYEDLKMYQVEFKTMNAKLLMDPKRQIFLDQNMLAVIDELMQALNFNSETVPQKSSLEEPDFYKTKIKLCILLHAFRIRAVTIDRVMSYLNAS
Experiment: SPR (Biacore T200), 37 C, pH 7.4; captured antibody, IL-12 analyte
outcome-measure: pKd
Would you please state pKd, meaning minus log10 of the concentration in mol/L, as a bare number?

binder	outcome-measure	recorded-result
Anti-IL-12 antibody Ab1 variant F100aI VH/- (antibody, name in Kabat numbering, V domains shown, Ab1 with a CDR substitution at the VH/VL interface; Kabat numbering) VH: QVQLVQSGAEVKKPGSSVKVSCKASGGTFSDYYLHWVRQAPGQGLEWMGWIDPENGDTEYAPKFQGRVTITADESTSTAYMELSSLRSEDTAVYYCARNKELRYIDVWGQGTLVTVSS VL: DIVMTQSPLSLPVTPGEPASISCRASQSISINLHWYQQKPGQAPRLLIYFASQSISGVPSRFSGSGSGTDFTLTISSLQPEDFATYYCQQSNSFPLTFGQGTKVEIKR	pKd	9.24

# context switch: different binder, same pKd
IN: I have this binder here, Anti-IL-12 antibody Ab1 variant -/Y49A VL (antibody, V domains shown, Ab1 with VH/VL interface substitutions; Kabat numbering) VH: QVQLVQSGAEVKKPGSSVKVSCKASGGTFSDYYLHWVRQAPGQGLEWMGWIDPENGDTEYAPKFQGRVTITADESTSTAYMELSSLRSEDTAVYYCARNKELRYFDVWGQGTLVTVSS VL: DIVMTQSPLSLPVTPGEPASISCRASQSISINLHWYQQKPGQAPRLLIAFASQSISGVPSRFSGSGSGTDFTLTISSLQPEDFATYYCQQSNSFPLTFGQGTKVEIKR , and I need its recorded pKd.
OUT: 8.76
